Test target: HSV-1 helicase-primase (Human herpesvirus 1, UniProt P10189+P10236)
Construct: made in house; host or cells: Sf21 insect cells triply infected with recombinant baculoviruses (UL5, UL8, UL52)
Sequence (P10192 whole entry): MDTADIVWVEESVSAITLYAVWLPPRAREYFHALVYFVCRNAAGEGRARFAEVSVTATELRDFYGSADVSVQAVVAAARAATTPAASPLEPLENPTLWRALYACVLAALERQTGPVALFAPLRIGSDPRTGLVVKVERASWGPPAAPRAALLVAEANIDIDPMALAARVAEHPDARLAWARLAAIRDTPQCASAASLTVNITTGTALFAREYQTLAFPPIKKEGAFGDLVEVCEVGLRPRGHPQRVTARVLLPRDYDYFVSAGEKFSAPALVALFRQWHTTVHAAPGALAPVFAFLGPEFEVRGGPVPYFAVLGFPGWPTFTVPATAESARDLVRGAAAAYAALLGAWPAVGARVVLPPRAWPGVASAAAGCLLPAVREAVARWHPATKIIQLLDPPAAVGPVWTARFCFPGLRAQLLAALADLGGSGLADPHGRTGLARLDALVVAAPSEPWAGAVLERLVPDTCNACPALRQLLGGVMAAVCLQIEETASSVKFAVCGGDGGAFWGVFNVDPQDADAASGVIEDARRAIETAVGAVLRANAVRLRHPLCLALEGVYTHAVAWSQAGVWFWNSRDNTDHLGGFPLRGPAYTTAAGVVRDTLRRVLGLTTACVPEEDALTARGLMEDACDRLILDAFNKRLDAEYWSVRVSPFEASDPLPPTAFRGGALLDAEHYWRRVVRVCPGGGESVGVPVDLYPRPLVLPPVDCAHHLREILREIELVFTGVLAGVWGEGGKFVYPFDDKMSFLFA
Sequence (P10236 whole entry): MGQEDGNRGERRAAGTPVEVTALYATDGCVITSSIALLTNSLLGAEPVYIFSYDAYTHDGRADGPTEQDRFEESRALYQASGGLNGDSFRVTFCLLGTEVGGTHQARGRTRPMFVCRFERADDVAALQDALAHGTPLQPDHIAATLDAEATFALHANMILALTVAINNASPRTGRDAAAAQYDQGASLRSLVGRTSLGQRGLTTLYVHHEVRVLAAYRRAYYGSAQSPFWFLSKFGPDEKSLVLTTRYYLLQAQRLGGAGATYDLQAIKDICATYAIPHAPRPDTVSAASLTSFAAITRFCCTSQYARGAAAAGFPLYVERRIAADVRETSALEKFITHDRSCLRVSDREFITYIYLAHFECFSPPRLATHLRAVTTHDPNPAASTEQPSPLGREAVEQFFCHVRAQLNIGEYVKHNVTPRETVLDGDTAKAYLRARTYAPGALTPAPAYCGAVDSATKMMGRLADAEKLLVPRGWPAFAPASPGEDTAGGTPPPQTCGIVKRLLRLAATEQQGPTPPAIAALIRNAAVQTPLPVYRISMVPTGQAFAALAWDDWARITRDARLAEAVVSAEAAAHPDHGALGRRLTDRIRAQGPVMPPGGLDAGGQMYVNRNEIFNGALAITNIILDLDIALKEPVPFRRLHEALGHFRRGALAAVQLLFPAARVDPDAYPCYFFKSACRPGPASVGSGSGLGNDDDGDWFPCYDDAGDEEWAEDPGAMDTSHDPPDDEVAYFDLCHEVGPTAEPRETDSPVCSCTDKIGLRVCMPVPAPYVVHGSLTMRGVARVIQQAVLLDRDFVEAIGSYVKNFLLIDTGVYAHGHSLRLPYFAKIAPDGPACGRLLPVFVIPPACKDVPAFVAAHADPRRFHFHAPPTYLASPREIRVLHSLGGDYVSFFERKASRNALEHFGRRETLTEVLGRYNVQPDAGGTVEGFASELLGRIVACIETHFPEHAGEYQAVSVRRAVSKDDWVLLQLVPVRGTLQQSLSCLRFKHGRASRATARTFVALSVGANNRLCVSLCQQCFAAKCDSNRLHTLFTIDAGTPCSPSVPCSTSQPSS
Sequence (P10189 whole entry): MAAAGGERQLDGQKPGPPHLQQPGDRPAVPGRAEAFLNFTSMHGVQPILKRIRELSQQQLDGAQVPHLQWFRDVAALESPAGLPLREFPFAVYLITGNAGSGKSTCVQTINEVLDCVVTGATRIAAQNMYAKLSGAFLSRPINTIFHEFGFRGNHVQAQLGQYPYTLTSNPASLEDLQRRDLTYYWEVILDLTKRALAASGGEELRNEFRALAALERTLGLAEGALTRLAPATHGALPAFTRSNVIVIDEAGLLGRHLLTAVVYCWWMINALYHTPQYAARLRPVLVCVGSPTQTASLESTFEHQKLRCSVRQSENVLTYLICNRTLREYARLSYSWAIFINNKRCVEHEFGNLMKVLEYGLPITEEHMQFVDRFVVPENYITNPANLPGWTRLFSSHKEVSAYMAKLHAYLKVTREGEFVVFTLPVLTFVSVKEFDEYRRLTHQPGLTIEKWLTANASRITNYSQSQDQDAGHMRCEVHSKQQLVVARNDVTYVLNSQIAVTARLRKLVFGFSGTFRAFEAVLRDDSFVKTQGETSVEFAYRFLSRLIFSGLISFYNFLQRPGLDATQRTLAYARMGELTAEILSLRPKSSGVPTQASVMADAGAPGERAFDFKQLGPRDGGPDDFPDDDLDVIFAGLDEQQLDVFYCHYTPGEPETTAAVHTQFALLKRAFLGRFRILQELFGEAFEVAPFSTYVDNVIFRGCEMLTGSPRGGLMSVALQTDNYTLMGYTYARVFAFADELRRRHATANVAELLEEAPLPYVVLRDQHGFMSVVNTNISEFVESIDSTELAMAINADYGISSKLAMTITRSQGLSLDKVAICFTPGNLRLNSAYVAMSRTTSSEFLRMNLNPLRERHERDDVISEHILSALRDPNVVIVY
Experimental protocol: HSV-1 DNA-dependent ATPase assay (inhibition of HSV-1 helicase-primase)
Assay type: biochemical
Stated conditions: Group 1 Table 6 entries

[
  {
    "Given smiles": "Nc1nc(-c2ccc(NC(=O)[C@H]3CCC(=O)N3CC3CCCCC3)cc2)cs1",
    "Measurement units": "µM",
    "IC50": 6.2
  },
  {
    "Given smiles": "CC(C)(C)OC(=O)N1CCC[C@@H]1C(=O)Nc1ccc(-c2csc(N)n2)cc1",
    "Measurement units": "µM",
    "IC50": 7.5
  },
  {
    "Given smiles": "Nc1nc(-c2ccc(NC(=O)[C@@H]3CCCN3C(=O)c3ccccc3)cc2)cs1",
    "Measurement units": "µM",
    "IC50": 1.6
  },
  {
    "Given smiles": "CC(C)(C)OC(=O)N1CCC[C@H]1C(=O)Nc1ccc(-c2csc(N)n2)cc1",
    "Measurement units": "µM",
    "IC50": 0.46
  }
]

====

System: HSV-1 strain F or KOS
Experimental protocol: Inhibition of herpes simplex virus (HSV-1) replication in cell culture (BHK-21 cells, glycoprotein C ELISA)
Format: cell-based
Stated conditions: Human alphaherpesvirus 1, BHK-21, Group 1 Table 1 entries
Entries and their log10(EC50) values follow.
Measured parameter: log10(EC50) (log10 of the value in nM)

[
  {
    "Given smiles": "Nc1nc(-c2ccc(NC(=O)CN(Cc3ccc(Cl)c(I)c3)C(=O)c3ccncc3)cc2)cs1",
    "log10(EC50)": 2.20
  },
  {
    "Given smiles": "Cc1ccn(C)c1C(=O)N(CC(=O)Nc1ccc(-c2csc(N)n2)cc1)Cc1ccccc1",
    "log10(EC50)": 1.48
  },
  {
    "Given smiles": "Nc1nc(-c2ccc(NC(=O)CN(Cc3ccc(F)cc3)C(=O)c3ccncc3)cc2)cs1",
    "log10(EC50)": 2.15
  },
  {
    "Given smiles": "Nc1nc(-c2ccc(NC(=O)CNCc3ccccn3)cc2)cs1",
    "log10(EC50)": 3.18
  },
  {
    "Given smiles": "Nc1nc(-c2ccc(NC(=O)CN(Cc3ccc(Cl)cc3)C(=O)c3ccncc3)cc2)cs1",
    "log10(EC50)": 1.98
  },
  {
    "Given smiles": "Nc1nc(-c2ccc(NC(=O)CN(Cc3ccccc3)C(=O)N3CCOCC3)cc2)cs1",
    "log10(EC50)": 1.57
  },
  {
    "Given smiles": "CN(C)S(=O)(=O)N(CC(=O)Nc1ccc(-c2csc(N)n2)cc1)Cc1ccccc1",
    "log10(EC50)": 2.20
  },
  {
    "Given smiles": "CC(C)CN(CC(=O)Nc1ccc(-c2csc(N)n2)cc1)C(=O)C1CCCCC1",
    "log10(EC50)": 2.26
  }
]

====

Test target: HSV-1 helicase-primase (Human herpesvirus 1, UniProt P10189+P10236)
Construct: made in house; host or cells: Sf21 insect cells triply infected with recombinant baculoviruses (UL5, UL8, UL52)
Experimental protocol: HSV-1 DNA-dependent ATPase assay (inhibition of HSV-1 helicase-primase)
Assay type: biochemical
Stated conditions: Group 1 Table 6 entries
Measured parameter: IC50 (nM)

[
  {
    "Given smiles": "Nc1nc(-c2ccc(NC(=O)[C@H]3CCCN3C(=O)c3ccccc3)cc2)cs1",
    "Measurement units": "nM",
    "Numeric result": 1600
  },
  {
    "Given smiles": "Nc1nc(-c2ccc(NC(=O)[C@H]3CCCN3C(=O)C3CCCCC3)cc2)cs1",
    "Measurement units": "nM",
    "Numeric result": 130
  },
  {
    "Given smiles": "Nc1nc(-c2ccc(NC(=O)[C@@H]3CCC(=O)N3Cc3ccccc3)cc2)cs1",
    "Measurement units": "nM",
    "Numeric result": 6200
  },
  {
    "Given smiles": "Nc1nc(-c2ccc(NC(=O)[C@@H]3CCCN3C(=O)C3CCCCC3)cc2)cs1",
    "Measurement units": "nM",
    "Numeric result": 52
  }
]
